B1: POU domain, class 6, transcription factor 2, residues 609 to 663; numbered along this chain, P78424 (parent)
chain: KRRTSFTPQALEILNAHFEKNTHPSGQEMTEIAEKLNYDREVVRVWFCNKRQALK

Variants of: B1
Test: abundance fitness (aPCA) (normalised: wild type 0, dead -1); higher = more abundant; growth selection in yeast, the domain comes from the species named
Conditions: Homo sapiens
Would you please tag the item Met when its abundance fitness is -0.09 or above, and Not met when it is below?

Please review the entries below; each comes with its answer.
Variant notation: L54Y
Assigned label: Not met

Variant notation: E41G
Assigned label: Not met

Variant notation: A10G
Assigned label: Met

Variant notation: H17R
Assigned label: Not met

Variant notation: W46Y
Assigned label: Met

Variant notation: R40K
Assigned label: Met

Prompt: Check if abundance fitness >= -0.09 (inclusive). Item: R51I
Response: Not met

Prompt: Item D39E with abundance fitness of -0.09 or above?
Response: Not met

Prompt: Please check the record D39Y and state if its abundance fitness is at or above -0.09.
Response: Not met
